A collection of compounds and their measured pIC50
# assay.target: Recombinant human cathepsin A (Homo sapiens)
# Construct: Recombinant human cathepsin A (residues 29-480, with a C-terminal 10-His tag); 10-His (C); purchased R&D Systems 1049-SE
# assay.info: Cathepsin A inhibitory activity
# Assay type: biochemical
# run.conditions: read-out: Activity (2): Cathepsin A inhibitory activity, IC50 class
pIC50: −log10 of the molar value.

// below: answered compounds
O=C(O)CC(NC(=O)c1cc(O)n(-c2ccccc2Cl)n1)c1ccc(-c2ccc(F)cc2)cc1 (stereo not drawn) [Example 115] | > 7.00
COc1cccc([C@H](CC(=O)O)NC(=O)c2cc(O)n(-c3ccc(Cl)cc3)n2)c1 [Example 278] | 4.52 to 6.00
CC(C)C(CC(=O)O)NC(=O)c1cc(O)n(-c2ccccc2)n1 (stereo not drawn) [Example 13] | 4.52 to 6.00

Indicate the recorded pIC50 value for this compound: Cc1ccccc1[C@H](CC(=O)O)NC(=O)c1cc(OC[C@](C)(O)C(C)C)n(-c2ccccc2F)n1 [Example 857]
> 7.00

Recall and state the measured pIC50 for O=C(O)CC(NC(=O)c1cc(O)n(-c2cccc(F)c2)n1)c1ccc(Cl)c(Cl)c1 (stereo not drawn) [Example 328] .
6.00 to 7.00

Tell us which pIC50 value is on record for CC(C)[C@@](C)(O)COc1cc(C(=O)N[C@@H](CC(=O)O)c2ccccc2F)nn1-c1ccccc1F [Example 862]
6.00 to 7.00

Answer with reported pIC50 of Cc1ccc([C@H](CC(=O)O)NC(=O)c2cc(O)n(-c3ccccc3Cl)n2)cc1 [Example 135]
6.00 to 7.00

---

Entries annotated with measured IC50
# assay.target: Recombinant human cathepsin A (Homo sapiens, UniProt P10619)
# Construct: Recombinant human cathepsin A (residues 29-480, with a C-terminal 10-His tag); 10-His (C); purchased R&D Systems 1049-SE
# Sequence (P10619 29-312 limits assumed): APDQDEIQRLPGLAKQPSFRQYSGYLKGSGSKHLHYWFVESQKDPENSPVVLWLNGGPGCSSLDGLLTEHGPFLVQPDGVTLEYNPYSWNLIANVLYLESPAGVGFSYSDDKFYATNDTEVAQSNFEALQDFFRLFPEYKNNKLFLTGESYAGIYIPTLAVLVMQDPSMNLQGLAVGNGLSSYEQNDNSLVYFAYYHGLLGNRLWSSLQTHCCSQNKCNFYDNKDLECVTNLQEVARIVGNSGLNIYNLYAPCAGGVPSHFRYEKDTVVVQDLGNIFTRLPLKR
# Sequence (P10619 327-480 limits assumed): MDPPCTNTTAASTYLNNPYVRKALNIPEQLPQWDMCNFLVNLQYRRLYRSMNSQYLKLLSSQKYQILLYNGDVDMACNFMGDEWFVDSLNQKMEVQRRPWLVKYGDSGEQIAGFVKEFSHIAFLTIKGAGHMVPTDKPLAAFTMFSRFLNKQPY
# assay.info: Cathepsin A inhibitory activity
# Type: biochemical
# run.conditions: read-out: Activity (2): Cathepsin A inhibitory activity, IC50 class

Illustrative cases are given below, each with its answer.
Cc1ccc(C)c(-n2nc(C(=O)NC(CC(=O)O)c3cccnc3)cc2O)c1 (stereo not shown) | 1 to 30 µM
N#Cc1ccc([C@H](CC(=O)O)NC(=O)c2cc(O)n(-c3ccc(Cl)cc3)n2)cc1 | 1 to 30 µM
COc1cccc([C@H](CC(=O)O)NC(=O)c2cc(O)n(-c3ccccc3Cl)n2)c1OC | 0.1 to 1 µM
O=C(O)C[C@H](NC(=O)c1cc(O)n(-c2ccccc2F)n1)c1c(F)cccc1F | 0.1 to 1 µM
COc1ccccc1[C@H](CC(=O)O)NC(=O)c1cc(O)n(-c2ccccc2F)n1 | 0.1 to 1 µM

// next entry
For the molecule COc1ccc(C(CC(=O)O)NC(=O)c2cc(O)n(-c3cccc(F)c3)n2)c(Cl)c1 (stereo not shown) , report IC50.
0.1 to 1 µM

---

The entries below come with measured IC50 values attached.
# assay.target: Recombinant human cathepsin A (Homo sapiens)
# Construct: Recombinant human cathepsin A (residues 29-480, with a C-terminal 10-His tag); 10-His (C); purchased R&D Systems 1049-SE
# assay.info: Cathepsin A inhibitory activity
# Assay type: biochemical
# run.conditions: read-out: Activity (2): Cathepsin A inhibitory activity, IC50 class

Answered examples (3):
O=C(O)C[C@H](NC(=O)c1cc(O)n(-c2ccccc2Cl)n1)c1ccc(Cl)cc1Cl | 0.1 to 1 µM
N#Cc1cccc([C@H](CC(=O)O)NC(=O)c2cc(O)n(-c3cccc(F)c3)n2)c1 | 1 to 30 µM
COc1ccc(C(CC(=O)O)NC(=O)c2cc(O)n(-c3ccccc3)n2)c(F)c1 (stereo not shown) | 0.1 to 1 µM

Attention now shifts to the item below.
Quote IC50 reported for O=C(O)C[C@H](NC(=O)c1cc(O)n(-c2cccc(F)c2)n1)c1cccc(F)c1 please.
0.1 to 1 µM

---

Quick reference for IC50 among some compounds
# assay.target: Recombinant human cathepsin A (Homo sapiens, UniProt P10619)
# Construct: Recombinant human cathepsin A (residues 29-480, with a C-terminal 10-His tag); 10-His (C); purchased R&D Systems 1049-SE
# assay.info: Cathepsin A inhibitory activity
# Format: biochemical
# run.conditions: read-out: Activity (2): Cathepsin A inhibitory activity (IC50 class)

O=C(O)CC(NC(=O)c1cc(O)n(-c2cc(F)cc(F)c2)n1)c1ccc(-c2ccc(F)cc2)cc1 (centres unmarked) | 1000 to 30000 nM
CC(C)C(C)(O)COc1cc(C(=O)N[C@@H](CC(=O)O)c2cccc(F)c2)nn1-c1ccccc1F (some centres unmarked) | < 100 nM
CCOc1cc(C(=O)NC(CC(=O)O)c2cccc(F)c2C)nn1-c1ccccc1Cl (centres unmarked) | < 100 nM
O=C(O)CC(NC(=O)c1cc(OCC2CC2)n(-c2ccccc2F)n1)c1ccc(F)cc1 (centres unmarked) | 100 to 1000 nM

Let me know recorded IC50 for CCOc1cc(C(=O)NC(CC(=O)O)c2cccc(C)c2C)nn1-c1ccccc1Cl (centres unmarked) , thanks.
< 100 nM

Please give the documented IC50 of CCCCCCOc1cc(C(=O)N[C@@H](CC(=O)O)c2ccccc2C)nn1-c1ccccc1F
< 100 nM

Return IC50 (reported value) for this compound: COc1ccc(C(CC(=O)O)NC(=O)c2cc(OCC3CC3)n(-c3ccccc3F)n2)c(Cl)c1 (centres unmarked)
< 100 nM

Entry Cc1ccc(C(CC(=O)O)NC(=O)c2cc(O)n(-c3ccccc3)n2)c(F)c1 (centres unmarked) needs its IC50 filled in; supply it.
100 to 1000 nM

---

# assay.target: Recombinant human cathepsin A (Homo sapiens)
# Construct: Recombinant human cathepsin A (residues 29-480, with a C-terminal 10-His tag); 10-His (C); purchased R&D Systems 1049-SE
# assay.info: Cathepsin A inhibitory activity
# Type: biochemical
# run.conditions: read-out: Activity (2): Cathepsin A inhibitory activity, IC50 class
measurement.type: IC50

Output IC50 of Cc1cccc([C@H](CC(=O)O)NC(=O)c2cc(O)n(-c3ccccc3F)n2)c1
100 to 1000 nM

Give a short answer stating reported IC50 for O=C(O)CC(NC(=O)c1cc(O)n(-c2ccccc2)n1)c1ccc(C(F)(F)F)cc1 (centres unmarked) .
1000 to 30000 nM

Give recorded IC50. Cc1ccc(C)c(-n2nc(C(=O)NC(CC(=O)O)c3ccc(C(F)(F)F)cc3)cc2O)c1 (centres unmarked)
1000 to 30000 nM

---

# assay.target: Recombinant human cathepsin A (Homo sapiens)
# Construct: Recombinant human cathepsin A (residues 29-480, with a C-terminal 10-His tag); 10-His (C); purchased R&D Systems 1049-SE
# assay.info: Cathepsin A inhibitory activity
# Type: biochemical
# run.conditions: read-out: Activity (2): Cathepsin A inhibitory activity (IC50 class)
pIC50: −log10 of the molar value.
# pIC50 per entry

Past entries and their recorded results:
CC(C)[C@](C)(O)COc1cc(C(=O)N[C@@H](CC(=O)O)c2ccccc2C(F)(F)F)nn1-c1ccccc1F [Example 784] | > 7.00
COc1ccc(-c2ccccc2)cc1C(CC(=O)O)NC(=O)c1cc(O)n(-c2ccccc2)n1 (stereo not drawn) [Example 549] | 4.52 to 6.00
COc1ccc(C(CC(=O)O)NC(=O)c2cc(O)n(-c3ccccc3F)n2)c(C(F)(F)F)c1 (stereo not drawn) [Example 552] | 6.00 to 7.00
Cc1ccccc1[C@H](CC(=O)O)NC(=O)c1cc(OC[C@](C)(O)C(C)(C)C)n(-c2ccccc2F)n1 (single isomer, unassigned) [Example 747] | > 7.00
Cc1ccccc1[C@H](CC(=O)O)NC(=O)c1cc(OC(=O)N(C)C)n(-c2ccccc2F)n1 [Example 614] | > 7.00

Input Cc1ccccc1[C@H](CC(=O)O)NC(=O)c1cc(OC[C@](C)(O)C2CC2)n(-c2ccccc2F)n1 (single isomer, unassigned) [Example 763] , output reported pIC50.
> 7.00

Kindly indicate its recorded pIC50. Item: CCOc1cc(C(=O)NC(CC(=O)O)c2ccc(C)cc2C)nn1-c1ccccc1Cl (stereo not drawn) [Example 728]
> 7.00

Please report the measured pIC50 for CC(C)[C@@](C)(O)COc1cc(C(=O)NC(CC(=O)O)C2CCCCC2)nn1-c1ccccc1F (stereo partly drawn) [Example 786]
> 7.00

# return recorded pIC50 for input Cc1cccc([C@H](CC(=O)O)NC(=O)c2cc(OCC3CC3)n(-c3ccccc3F)n2)c1 [Example 690]
> 7.00

For the compound Cc1ccccc1[C@H](CC(=O)O)NC(=O)c1cc(OCc2ccccc2C#N)n(-c2ccccc2F)n1 [Example 635] , give its reported pIC50.
> 7.00

For the compound CC(C)[C@@](C)(O)COc1cc(C(=O)N[C@@H](CC(=O)O)c2ccc(F)cc2)nn1-c1ccccc1F [Example 768] , give its reported pIC50.
> 7.00

Give the value of pIC50 reported for the following: COc1ccc(F)c(C(CC(=O)O)NC(=O)c2cc(O)n(-c3ccccc3Cl)n2)c1 (stereo not drawn) [Example 559]
6.00 to 7.00

Complete the entry with pIC50 for Cc1ccccc1[C@H](CC(=O)O)NC(=O)c1cc(OC(=O)N2CCCCC2)n(-c2ccccc2F)n1 [Example 619]
> 7.00

Report measured pIC50; entry is CCOc1cc(C(=O)N[C@@H](CC(=O)O)c2cccc(C)c2)nn1-c1ccccc1Cl [Example 732]
> 7.00

Tell me its pIC50 given Cc1ccccc1[C@H](CC(=O)O)NC(=O)c1cc(OC[C@@H]2CCC(=O)N2)n(-c2ccccc2F)n1 [Example 654] as the entry.
> 7.00

Give pIC50 for CC(C)(C)[C@@H](O)COc1cc(C(=O)N[C@@H](CC(=O)O)c2cccc(Cl)c2Cl)nn1-c1ccccc1F [Example 776]
> 7.00

Note down pIC50 recorded for CC(C)(C)[C@](C)(O)COc1cc(C(=O)N[C@@H](CC(=O)O)c2ccccc2Cl)nn1-c1ccccc1F [Example 789]
> 7.00

Give the reported pIC50 for this compound. O=C(O)CC(NC(=O)c1cc(O)n(-c2ccccc2)n1)c1ccc(-n2cncn2)cc1 (stereo not drawn) [Example 563]
4.52 to 6.00

Determine its reported pIC50: O=C(O)CC(NC(=O)c1cc(O)n(-c2ccccc2F)n1)c1ccc(N2CCCC2)cc1 (stereo not drawn) [Example 566]
4.52 to 6.00

Note down pIC50 recorded for NS(=O)(=O)c1cccc(-n2nc(C(=O)NC(CC(=O)O)c3ccc(-c4ccc(F)cc4)cc3)cc2O)c1 (stereo not drawn) [Example 606]
6.00 to 7.00

Return reported pIC50. Input compound: COc1ccc(C(CC(=O)O)NC(=O)c2cc(OCC3CC3)n(-c3ccccc3F)n2)c(C)c1 (stereo not drawn) [Example 692]
> 7.00

Please supply the value of reported pIC50 for the item Cc1ccccc1[C@H](CC(=O)O)NC(=O)c1cc(O)n(-c2cc(F)cc(F)c2)n1 [Example 586]
6.00 to 7.00

For the compound CC(C)(O)COc1cc(C(=O)N[C@@H](CC(=O)O)c2ccc(Cl)cc2Cl)nn1-c1ccccc1F [Example 751] , give its reported pIC50.
> 7.00

Quote pIC50 reported for COc1cc(C(=O)N[C@@H](CC(=O)O)c2ccccc2C)nn1C(C)(C)C [Example 611] please.
6.00 to 7.00
